- method_summary: Half life in Candida infected ICR/Swiss neutropenic mouse at 5 mg/kg, ip
- Type: ADME, organism-based
- Set-up: dose 5 mg/kg, route intraperitoneal
- recorded_conditions: in vivo
*1 amine or outer side, *2 acyl side, *3 side chain or, on linkers, in order; H or OH if unused. Where a SMILES comes first, the peptide text is derived from it. Bridges are numbered along the chain shown (N, C = ends). [ ]: non-standard residue; d: D form. The star is where a group is joined. hTyr(3S-OH,4S-OH,3'-OSO3H) = N[C@H](C(=O)O)[C@H](O)[C@@H](O)c1ccc(O)c(OS(=O)(=O)O)c1; Orn(4R-OH,5R-OH) = O=C([C@H](C[C@@H](O)[C@@H](O)N[*:3])N[*:1])[*:2]; Pro(3S-OH,4S-Me) = C[C@H]1CN[C@H](C(=O)O)[C@H]1O; X1 = CCCCCOc1ccc(-c2cc(-c3ccc(C(=O)*)cc3)no2)cc1; Gln(3R-OH) = NC(=O)C[C@@H](O)[C@H](N)C(=O)O; Hyp = O=C(O)[C@@H]1C[C@@H](O)CN1
observable: half-life (h)
# unit: h | format: bare number

stdin: Give half-life for CCCCCOc1ccc(-c2cc(-c3ccc(C(=O)N[C@H]4C[C@@H](O)[C@@H](O)NC(=O)[C@@H]5[C@@H](O)[C@@H](C)CN5C(=O)[C@H]([C@H](O)CC(N)=O)NC(=O)[C@H]([C@H](O)[C@@H](O)c5ccc(O)c(OS(=O)(=O)O)c5)NC(=O)[C@@H]5C[C@@H](O)CN5C(=O)[C@H]([C@@H](C)O)NC4=O)cc3)no2)cc1 [MICAFUNGIN] (X1-[Orn(4R-OH,5R-OH)]T[Hyp][hTyr(3S-OH,4S-OH,3'-OSO3H)][Gln(3R-OH)][Pro(3S-OH,4S-Me)]; lactam 1-C)
stdout: 7.5

Hello, the source for this data is ChEMBL document CHEMBL1275496, in case you need it.
